testSystem: T1, recombinant human IL-6 (human, UniProt P05231 30-212)
T1 construct: Bought protein
T1 sequence (P05231 30-212 limits assumed): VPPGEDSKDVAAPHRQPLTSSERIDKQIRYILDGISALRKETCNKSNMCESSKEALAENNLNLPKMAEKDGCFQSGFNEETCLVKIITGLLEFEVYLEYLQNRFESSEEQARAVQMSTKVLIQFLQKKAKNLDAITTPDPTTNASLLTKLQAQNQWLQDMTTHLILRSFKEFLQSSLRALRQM
assayNotes: SPR Biacore, supernatant Ab on Protein A chip, IL-6 analyte, 25 C
measuredAttribute: koff
Just the number plus its unit, please.

Completed entries (count: 4):
INSERT INTO assay_data (binder, measuredattribute, valuereported) VALUES
  ('anti-IL-6 antibody, light chain A54G (heavy chain WT) (antibody, V domains shown, See note of m2; also called WT / A54G) VH: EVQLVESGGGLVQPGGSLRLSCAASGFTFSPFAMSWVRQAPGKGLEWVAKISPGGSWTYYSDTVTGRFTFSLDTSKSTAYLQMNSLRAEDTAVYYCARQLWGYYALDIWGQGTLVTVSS VL: DIQLTQSPSSLSASVGDRVTITCSASISVSYMYWYQQKPGKAPKLLIYDMSNLGSGVPSRFSGSGSGTDFTLTISSLQPEDFATYYCMQWSGYPYTFGQGTKVEIK', 'koff', '0.000198 s⁻¹'),
  ('anti-IL-6 antibody, light chain L53R (heavy chain WT) (antibody, V domains shown, See note of m2; also called WT / L53R) VH: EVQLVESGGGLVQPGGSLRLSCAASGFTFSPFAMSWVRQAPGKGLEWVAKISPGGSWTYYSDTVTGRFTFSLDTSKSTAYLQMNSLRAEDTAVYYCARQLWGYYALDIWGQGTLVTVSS VL: DIQLTQSPSSLSASVGDRVTITCSASISVSYMYWYQQKPGKAPKLLIYDMSNRASGVPSRFSGSGSGTDFTLTISSLQPEDFATYYCMQWSGYPYTFGQGTKVEIK', 'koff', '0.000185 s⁻¹'),
  ('anti-IL-6 antibody, light chain S51R (heavy chain WT) (antibody, V domains shown, See note of m2; also called WT / S51R) VH: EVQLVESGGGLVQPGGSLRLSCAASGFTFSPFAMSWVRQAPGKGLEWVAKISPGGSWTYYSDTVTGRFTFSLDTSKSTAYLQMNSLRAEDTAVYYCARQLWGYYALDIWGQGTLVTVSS VL: DIQLTQSPSSLSASVGDRVTITCSASISVSYMYWYQQKPGKAPKLLIYDMRNLASGVPSRFSGSGSGTDFTLTISSLQPEDFATYYCMQWSGYPYTFGQGTKVEIK', 'koff', '0.000231 s⁻¹'),
  ('anti-IL-6 antibody, light chain T96L (heavy chain WT) (antibody, V domains shown, See note of m2; also called WT / T96L) VH: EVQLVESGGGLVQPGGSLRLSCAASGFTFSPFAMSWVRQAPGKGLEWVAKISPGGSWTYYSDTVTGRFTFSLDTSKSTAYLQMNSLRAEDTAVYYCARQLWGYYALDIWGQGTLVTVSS VL: DIQLTQSPSSLSASVGDRVTITCSASISVSYMYWYQQKPGKAPKLLIYDMSNLASGVPSRFSGSGSGTDFTLTISSLQPEDFATYYCMQWSGYPYLFGQGTKVEIK', 'koff', '0.000135 s⁻¹');

Consider now this further binder.
Query: Request the reported koff associated with anti-IL-6 antibody, light chain M88A (heavy chain WT) (antibody, V domains shown, See note of m2; also called WT / M88A) VH: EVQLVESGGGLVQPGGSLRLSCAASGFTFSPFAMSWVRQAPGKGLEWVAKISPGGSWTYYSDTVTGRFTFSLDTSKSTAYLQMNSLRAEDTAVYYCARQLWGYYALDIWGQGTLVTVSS VL: DIQLTQSPSSLSASVGDRVTITCSASISVSYMYWYQQKPGKAPKLLIYDMSNLASGVPSRFSGSGSGTDFTLTISSLQPEDFATYYCAQWSGYPYTFGQGTKVEIK
Reply: 0.000127 s⁻¹
